Target: T1, human GIP receptor (human, UniProt P48546 22-466)
T1 construct: whole, on cells; Transiently transfected COS-7 cells expressing the human GIP receptor; also called hGIPR
T1 sequence (looked up): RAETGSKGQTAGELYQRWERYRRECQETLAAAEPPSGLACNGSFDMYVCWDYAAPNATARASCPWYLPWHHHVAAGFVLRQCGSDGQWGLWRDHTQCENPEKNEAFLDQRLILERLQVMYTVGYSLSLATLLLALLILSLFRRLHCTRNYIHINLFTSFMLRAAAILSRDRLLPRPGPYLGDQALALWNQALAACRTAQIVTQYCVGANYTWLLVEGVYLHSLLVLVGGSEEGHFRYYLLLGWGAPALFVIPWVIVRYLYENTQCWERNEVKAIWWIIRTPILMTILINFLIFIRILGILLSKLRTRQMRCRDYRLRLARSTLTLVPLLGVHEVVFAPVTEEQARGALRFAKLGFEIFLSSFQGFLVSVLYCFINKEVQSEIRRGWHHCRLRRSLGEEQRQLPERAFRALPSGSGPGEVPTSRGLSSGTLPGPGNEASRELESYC
Assay: 125I-hGIP(1-42) competition binding, COS-7 cells expressing human GIPR
pIC50: −log10 of the molar value. Ends that are not written are not given here. * marks the point of attachment. Palmitoyl = CCCCCCCCCCCCCCCC(=O)*; Myristoyl = CCCCCCCCCCCCCC(=O)*
The following binders are listed with their measured pIC50 values.
readout: pIC50

>>> value_observed("EGTFISDYSIAMDK(Myristoyl)IHQQDFVNWLLAQK-NH2 [AT111 [hGIP(3-30)NH2-C14/16]]")
6.58
>>> value_observed("EGTFISDYSIAMDK(Palmitoyl)IHQQDFVNWLLAQK-NH2 [AT105 [hGIP(3-30)NH2-C16/16]]")
6.28
>>> value_observed("Palmitoyl-EGTFISDYSIAMDKIHQQDFVNWLLAQK-NH2 [AT104 [hGIP(3-30)NH2-C16/3]]")
7.12
